Target: Amine oxidase [flavin-containing] A (Homo sapiens)
Sequence (P21397 whole entry): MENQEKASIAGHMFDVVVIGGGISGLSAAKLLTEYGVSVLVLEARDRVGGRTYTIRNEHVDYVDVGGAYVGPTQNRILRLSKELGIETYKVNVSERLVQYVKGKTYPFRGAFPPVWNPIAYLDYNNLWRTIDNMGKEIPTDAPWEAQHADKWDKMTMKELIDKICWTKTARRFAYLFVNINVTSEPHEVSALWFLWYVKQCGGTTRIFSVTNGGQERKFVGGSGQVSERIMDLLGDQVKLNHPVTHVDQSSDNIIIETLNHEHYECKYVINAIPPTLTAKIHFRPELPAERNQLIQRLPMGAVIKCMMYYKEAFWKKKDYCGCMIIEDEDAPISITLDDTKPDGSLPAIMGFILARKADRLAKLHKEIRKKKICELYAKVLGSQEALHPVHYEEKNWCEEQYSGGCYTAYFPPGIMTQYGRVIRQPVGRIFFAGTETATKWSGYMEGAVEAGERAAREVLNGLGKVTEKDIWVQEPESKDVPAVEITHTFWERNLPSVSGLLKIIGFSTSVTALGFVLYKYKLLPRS
Test: Inhibition of human recombinant MAOA by fluorimetric method
We label by threshold. Values of IC50 strictly beneath 20 µM are label 1. Values of 20 µM and up are label 0.

See these solved cases before continuing.
- compound: "COc1c2ccc(=O)oc2cc2occ(C)c12"
  label_value: "label 0"
- compound: "O=c1oc2cc(O)ccc2c2c1CCC2"
  label_value: "label 0"
- compound: "C=C(Br)COc1ccc2c3c(c(=O)oc2c1C)CCC3"
  label_value: "label 1"
- compound: "C=C(Br)COc1ccc2c3c(c(=O)oc2c1C)CCCC3"
  label_value: "label 1"
- compound: "COc1c(OCC(C)=O)ccc2c3c(c(=O)oc12)CCC3"
  label_value: "label 1"

Here's an entry: COc1c(O)ccc2c(C)cc(=O)oc12 . Is its IC50 below 20 µM?
label 0

Here's an entry: Cc1cc(=O)oc2c(C)c3oc4c(c3cc12)CCC4 . Is its IC50 below 20 µM?
label 0

Here's an entry: COc1c2occc2cc2cc(N)c(=O)oc12 . Is its IC50 below 20 µM?
label 1

====

Species on record: Homo sapiens
Assay: Selectivity ratio of IC50 for human recombinant MAOA to IC50 for human recombinant MAOB
We label by threshold. Values of Ratio IC50 strictly beneath 0.009 are YES. Values of 0.009 and up are NO.

- compound: "COc1c2occc2cc2cc(N)c(=O)oc12"
  label_value: "NO"
- compound: "Cc1cc(=O)oc2cc(OC3CCCC3=O)ccc12 (stereo not drawn)"
  label_value: "YES"
- compound: "COc1cc(OCC(C)=O)cc2oc(=O)ccc12"
  label_value: "NO"

Here's an entry: Cc1cc(=O)oc2c(C)c(OC3CCCC3=O)ccc12 (stereo not drawn) . Is its Ratio IC50 below 0.009?
YES

Here's an entry: COc1c(OCC(C)=O)ccc2c3c(c(=O)oc12)CCC3 . Is its Ratio IC50 below 0.009?
NO

Here's an entry: COc1c(O)ccc2c3c(c(=O)oc12)CCCC3 . Is its Ratio IC50 below 0.009?
NO

Here's an entry: CC(=O)COc1ccc2c3c(c(=O)oc2c1C)CCC3 . Is its Ratio IC50 below 0.009?
NO

Here's an entry: CC(=O)COc1ccc2c(oc(=O)c3ccccc32)c1C . Is its Ratio IC50 below 0.009?
NO

====

Biological target: Amine oxidase [flavin-containing] B (Homo sapiens, UniProt P27338)
Sequence (P27338 whole entry): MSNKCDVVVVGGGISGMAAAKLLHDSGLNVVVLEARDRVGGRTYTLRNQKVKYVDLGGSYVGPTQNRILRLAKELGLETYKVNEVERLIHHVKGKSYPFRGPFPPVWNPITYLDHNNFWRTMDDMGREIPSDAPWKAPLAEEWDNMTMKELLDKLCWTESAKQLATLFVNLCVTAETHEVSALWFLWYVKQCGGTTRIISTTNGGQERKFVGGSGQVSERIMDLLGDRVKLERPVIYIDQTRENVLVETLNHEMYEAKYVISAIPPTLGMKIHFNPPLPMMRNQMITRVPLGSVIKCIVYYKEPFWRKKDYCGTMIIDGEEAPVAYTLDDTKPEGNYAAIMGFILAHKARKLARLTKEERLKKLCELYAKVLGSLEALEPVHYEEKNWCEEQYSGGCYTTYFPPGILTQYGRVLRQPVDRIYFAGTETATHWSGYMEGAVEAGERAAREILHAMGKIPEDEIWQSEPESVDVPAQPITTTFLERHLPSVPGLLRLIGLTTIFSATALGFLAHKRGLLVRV
recorded_metric: IC50 (µM)
Your answer should be a plain number; it is taken to be in µM.

Field: example entries. Status: answers known.
- smiles_notation: "COc1c(OCC(C)=O)ccc2c3c(c(=O)oc12)CCC3"
  IC50 / µM: 13
- smiles_notation: "C=C(Br)COc1ccc2c3c(c(=O)oc2c1C)CCCC3"
  IC50 / µM: 0.236
- smiles_notation: "COc1c(O)ccc2c3c(c(=O)oc12)CCCC3"
  IC50 / µM: 50.2

Now consider a different compound.
Any idea what IC50 was measured for COc1c2ccc(=O)oc2cc2occ(C)c12 ?
260
